src = patent US20260365653A1

- System: BA/F3 (insSVD) cells
- METHOD: Ba/F3-EGFR-insSVD cell survival assay (Cell Titer-Glo)
- Assay type: cell-based
- MEASUREMENT_CONDITIONS: Mus musculus, BaF3, 48 h, Table 3a, cell survival, Cell Titer-Glo, with 10 ng/ml EGF, without IL-3
Labelling: IC50 reported below 70 nM becomes class 1; at or above becomes class 0.

1) C=CC(=O)N1Cc2c(-c3ccncc3)c(-c3ccc4sccc4c3)nn2C[C@@H]1C [Example 276] ... class 1
2) C=CC(=O)N1Cc2c(-c3ccncc3)c(-c3ccc(F)cc3)nn2C(C(=O)NC)C1 (single isomer, unassigned; isomer 1) [Example 205] ... class 0
3) C=CC(=O)N1CCn2nc(-c3ccc(F)cc3)c(-c3ccnc(NC(=O)C4CC4)c3)c2C1 [Example 7] ... class 1
4) CNC(=O)CC1CN(C(=O)/C=C/CN(C)C)Cc2c(-c3ccncc3)c(-c3ccc(F)cc3)nn21 (racemic) [Example 221] ... class 0
5) C=CC(=O)N1CCn2nc(Nc3ccc(C(F)(F)F)cc3)c(-c3ccnc4[nH]cc(C)c34)c2C1 [Example 94] ... class 0
6) C=CC(=O)N1CCn2nc(-c3ccc(Cl)c(C)c3)c(-c3ccncc3)c2C1 [Example 2] ... class 1
7) O=C(C#CCN1CCOCC1)N1CCn2nc(-c3ccc(Cl)cc3F)c(-c3ccncc3)c2C1 [Example 85] ... class 1
8) COc1ccc(-c2nn3c(c2-c2ccnc4[nH]cc(C)c24)CN(C(=O)/C=C/CN(C)C)CC3)cc1F [Example 59] ... class 0

----------
- Tested on: BA/F3 (insSVD) cells
- METHOD: Ba/F3-EGFR-insSVD cell survival assay (Cell Titer-Glo)
- Format: cell-based
- MEASUREMENT_CONDITIONS: Mus musculus, BaF3, 48 h, Table 3a, cell survival, Cell Titer-Glo, with 10 ng/ml EGF, without IL-3
QUANTITY_KIND: IC50 (µM)

1) C=CC(=O)N1CCn2nc(-c3ccc(F)cc3)c(-c3ccnc(N)c3)c2C1 ... 0.0465
2) C=CC(=O)N1CCn2nc(-c3ccc(Cl)cc3F)c(-c3ccncc3C)c2C1 ... 0.156
3) C=CC(=O)N1Cc2c(-c3ccncc3)c(-c3ccc4cc(F)sc4c3)nn2CC1C (racemic) ... 0.0171
4) C=CC(=O)N1CCn2nc(-c3ccc(C#N)cc3)c(-c3ccncc3)c2C1 ... 0.131
5) C=CC(=O)N1CCn2nc(-c3ccc4sccc4c3)c(-c3ccncc3)c2C1C (racemic) ... 0.0482
6) CCc1ccc(-c2nn3c(c2-c2ccncc2)CN(C(=O)/C=C/CN(C)C)CC3)cc1 ... 0.482
7) C=CC(=O)N1CCn2nc(-c3ccc4sccc4c3)c(-c3ccncc3)c2C1 ... 0.148

----------
- TARGET_OR_SYSTEM: mutEGFR (D770_N771insSVD) (Homo sapiens, UniProt P00533, DUP768-770)
- Construct: GST-EGFR #3 (SVD between D770 and N771); made in house; host or cells: Sf9 insect cells (baculovirus)
- Sequence (P00533 with tags, fused parts or gaps DUP768-770): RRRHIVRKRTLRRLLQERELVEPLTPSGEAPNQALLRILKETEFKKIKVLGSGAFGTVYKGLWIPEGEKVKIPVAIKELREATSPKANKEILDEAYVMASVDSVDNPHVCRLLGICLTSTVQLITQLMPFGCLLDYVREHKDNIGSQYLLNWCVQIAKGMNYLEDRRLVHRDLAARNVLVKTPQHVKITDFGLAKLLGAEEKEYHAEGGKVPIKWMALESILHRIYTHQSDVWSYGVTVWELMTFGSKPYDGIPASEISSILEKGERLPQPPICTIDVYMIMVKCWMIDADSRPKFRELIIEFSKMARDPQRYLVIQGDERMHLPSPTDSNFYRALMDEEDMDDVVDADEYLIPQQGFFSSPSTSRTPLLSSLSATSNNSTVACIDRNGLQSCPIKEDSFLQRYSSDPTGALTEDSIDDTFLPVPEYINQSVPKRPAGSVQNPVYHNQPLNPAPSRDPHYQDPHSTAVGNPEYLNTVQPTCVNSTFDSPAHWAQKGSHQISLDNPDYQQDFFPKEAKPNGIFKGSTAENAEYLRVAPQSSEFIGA
- METHOD: Exon20-Mutant-EGFR (D770_N771insSVD) kinase assay (TR-FRET)
- Assay type: biochemical
- MEASUREMENT_CONDITIONS: mutEGFR (D770_N771insSVD) kinase assay IC50, Table 2a; D770_N771insSVD; 2 mM ATP
# maps each entry to its log10(IC50)
QUANTITY_KIND: log10(IC50) (log10 of the value in nM)

1) CC(C)(C)OC(=O)NC1(C#CC(=O)N2CCn3nc(-c4ccc(F)cc4)c(-c4ccncc4)c3C2)CC1 ... 2.09
2) CN(C)C/C=C/C(=O)N1CCn2nc(-c3cccc(C#N)c3)c(-c3ccncc3)c2C1 ... 1.92
3) CN(C)C/C=C/C(=O)N1CCn2nc(-c3ccc(Cl)c(F)c3)c(-c3ccncc3)c2C1 ... -0.22
4) CN(C)C/C=C/C(=O)N1Cc2c(-c3ccncc3)c(-c3ccc(Cl)cc3)nn2C(C)(C)C1 ... -0.29
5) CN(C)C/C=C/C(=O)N1CCn2nc(-c3ccc(OC(F)F)cc3)c(-c3ccncc3)c2C1 ... 0.94
6) C=CC(=O)N1C(C)c2c(-c3ccncc3)c(-c3ccc(Cl)cc3F)nn2C[C@H]1C (single isomer, unassigned; isomer 1) [Example 290] ... 3.07
7) CN(C/C=C/C(=O)N1CCn2nc(-c3ccc(Cl)cc3)c(-c3ccncc3)c2C1)CCO ... -0.42
8) C=CC(=O)N1CCn2nc(-c3ccc4cc[nH]c4c3F)c(-c3ccncc3)c2C1 ... -0.84
9) C=CC(=O)N1C(C)c2c(-c3ccncc3)c(-c3ccc(Cl)cc3F)nn2C[C@@H]1C (single isomer, unassigned; isomer 1) [Example 292] ... -0.89
10) CN(C)C/C=C/C(=O)N1CCn2nc(-c3ccc4[nH]ccc4c3)c(-c3ccncc3)c2C1 ... 0.16
11) C=CC(=O)N1CCn2nc(-c3ccc(C(F)(F)F)cc3)c(-c3ccnc4[nH]c(C)cc34)c2C1 ... 1.95
12) CN(C)C/C=C/C(=O)N1CCn2nc(-c3ccc4sccc4c3)c(-c3ccncc3)c2C1 ... -0.74
13) C=CC(=O)N1CCn2nc(-c3ccc(Cl)cc3Cl)c(-c3ccncc3)c2C1 ... -0.66
14) CC1c2c(-c3ccncc3)c(-c3ccc(Cl)cc3F)nn2CCN1C(=O)/C=C/CN(C)C (single isomer, unassigned; isomer 2) [Example 286] ... 1.85
15) Cc1cc(-c2nn3c(c2-c2ccncc2)CN(C(=O)/C=C/CN(C)C)C(C)(C)C3)ccc1Cl ... 0.84
16) C=CC(=O)N1Cc2c(-c3ccncc3)c(-c3cccc(C#N)c3)nn2C[C@@H]1C ... 1.40
17) C=CC(=O)N1CCn2nc(-c3ccc(C(F)F)cc3)c(-c3ccncc3)c2C1 ... 0.25
18) O=C(/C=C/CN1CC(F)C1)N1CCn2nc(-c3ccc(Cl)cc3)c(-c3ccncc3)c2C1 ... -0.69
19) O=C(/C=C/C(F)(F)F)N1CCn2nc(-c3ccc(F)cc3)c(-c3ccncc3)c2C1 ... 0.09
20) C=CC(=O)N1Cc2c(-c3ccncc3)c(-c3ccc(F)cc3)nn2C(C(N)=O)C1 (racemic) ... 0.66

----------
- TARGET_OR_SYSTEM: mutEGFR (D770_N771insSVD) (Homo sapiens, UniProt P00533, DUP768-770)
- Construct: GST-EGFR #3 (SVD between D770 and N771); made in house; host or cells: Sf9 insect cells (baculovirus)
- METHOD: Exon20-Mutant-EGFR (D770_N771insSVD) kinase assay (TR-FRET)
- Format: biochemical
- MEASUREMENT_CONDITIONS: mutEGFR (D770_N771insSVD) kinase assay IC50, Table 2a; D770_N771insSVD; 2 mM ATP
pIC50: −log10 of the molar value.
QUANTITY_KIND: pIC50

1) C=CC(=O)N1CCn2nc(-c3ccccc3)c(-c3ccncc3)c2C1 ... 8.99
2) C=CC(=O)N1CCn2nc(-c3ccc4sccc4c3)c(-c3ccncc3)c2C1C (racemic) ... 9.35
3) C=CC(=O)N1CCn2nc(-c3ccc(Cl)cc3F)c(-c3ccnc4[nH]cc(C)c34)c2C1 ... 6.95
4) C=CC(=O)N1CCn2nc(-c3ccc4occc4c3)c(-c3ccncc3)c2C1 ... 9.84
5) COc1ccc(-c2nn3c(c2-c2ccncc2)CN(C(=O)/C=C/CN(C)C)CC3)cc1F ... 8.39
6) C=CC(=O)N1Cc2c(-c3ccncc3)c(-c3ccc(Cl)cc3F)nn2C[C@H]1C ... 9.88

----------
- Tested on: BA/F3 (insSVD) cells
- METHOD: Ba/F3-EGFR-insSVD cell survival assay (Cell Titer-Glo)
- Assay type: cell-based
- MEASUREMENT_CONDITIONS: Mus musculus, BaF3, 48 h, Table 3a, cell survival, Cell Titer-Glo, with 10 ng/ml EGF, without IL-3
QUANTITY_KIND: IC50 (nM)

1. C=CC(=O)N1CCn2nc(-c3ccccc3)c(-c3ccncc3)c2C1 [Example 189] ... 22.3
2. C=CC(=O)N1Cc2c(-c3ccncc3)c(-c3ccc(Cl)cc3F)nn2C[C@H]1C [Example 271] ... 225
3. O=C(/C=C/CN1CC(F)(F)C1)N1CCn2nc(-c3ccc(F)cc3)c(-c3ccncc3)c2C1 [Example 84] ... 1230

----------
# maps each entry to its IC50
- Tested on: BA/F3 (insSVD) cells
- METHOD: Ba/F3-EGFR-insSVD cell survival assay (Cell Titer-Glo)
- Assay type: cell-based
- MEASUREMENT_CONDITIONS: Mus musculus, BaF3, 48 h, Table 3a, cell survival, Cell Titer-Glo, with 10 ng/ml EGF, without IL-3
- Method: Cellular Data Description (WT, insSVD, insSVD T790M) 293T cells from ATCC were transfected with pBABEpuro expression constructs for WT EGFR or EGFR-insSVD, or EGFR-insSVD T790M, and pCL-Eco packaging vector using Fugene-6 transfection reagent from Promega. […] Cell viability was measured by adding 20 μL of Cell Titer-Glo Luminescent Cell Viability Reagent diluted 1:3 in PBS. […] Plates were incubated in low light conditions for 8-10 min and luminescence was measured.
QUANTITY_KIND: IC50 (nM)

1) C=CC(=O)N1CCn2nc(-c3ccc(F)cc3)c(-c3ccnc4[nH]ccc34)c2C1 [Example 22] ... 62
2) CN(C)C/C=C/C(=O)N1CCn2nc(-c3ccc(F)cc3)c(-c3ccnc(Nc4ccccc4)c3)c2C1 [Example 21] ... 101
3) CN(C)C/C=C/C(=O)N1CCn2nc(-c3ccc(Cl)cc3F)c(-c3ccnc4[nH]ccc34)c2C1 [Example 103] ... 122
